tested on: SF-295 CNS; assay: NCI tumour cell line growth inhibition, 48 h
readout: GI50

[[record]]
smiles_string = "O=C(Nc1ccc(Cl)cc1)NS(=O)(=O)c1ccc2c(c1)CCC2"
result_value = "12 µg/mL"

[[record]]
smiles_string = "O=C(Nc1ccc(Cl)c(Cl)c1)Nc1ccc(Cl)c([N+](=O)[O-])c1"
result_value = "0.688 µM"

[[record]]
smiles_string = "CCOC(=O)c1cnc2ccc(Cl)cc2c1NCCCN(C)C"
result_value = "22.9 µM"


----------
tested on: LOX IMVI melanoma; experiment: NCI tumour cell line growth inhibition, 48 h
readout: TGI

[[record]]
compound = "CCOC(=O)c1c(SC(=O)c2cc(OC)c(OC)c(OC)c2)n(-c2ccccc2)c(=S)n(-c2ccccc2)c1=O"
result_value = "> 100 µM"

[[record]]
compound = "COc1ccc(/C=N\\N2CC(=O)N3C4C=CC(CC4)N3C2=O)cc1 (stereo not drawn)"
result_value = "> 100 µM"

[[record]]
compound = "O=C1CCC/C=C\\C[C@H]2C=C(Cl)C(=O)/C2=C/C[C@H](CCCCC(F)(F)F)OC(=O)CCC/C=C\\C[C@H]2C=C(Cl)C(=O)/C2=C/C[C@H](CCCCC(F)(F)F)O1"
result_value = "0.268 µM"

[[record]]
compound = "O=C(CCCCCCc1nc2ccc(Br)cc2[nH]1)NO"
result_value = "1.55 µM"

[[record]]
compound = "O=C(O)CC(NC(=O)Nc1ccc([N+](=O)[O-])cc1)C(=O)Nc1ccc([N+](=O)[O-])cc1 (stereo not drawn)"
result_value = "> 100 µM"

[[record]]
compound = "COc1ccc(C(=O)/C=C/c2ccc(Cl)cc2)cc1S(N)(=O)=O"
result_value = "2.65 µM"

[[record]]
compound = "CC(C)(C)c1cc(C(O)(C(=O)O)C(=O)O)cc(C(C)(C)C)c1O"
result_value = "> 100 µM"

[[record]]
compound = "C=C1C(=O)OC2C1C(OC(=O)/C(=C/C)COC(C)=O)CC1(CO1)C1C(OC(=O)/C(=C/C)CO)C=C(C)C21 (stereo not drawn)"
result_value = "11.9 µM"

